setup-conditions: in ethanol, 318.15 K
quantity: solubility (mole fraction)
Just the number.

Specify solubility (mole fraction) for CN[C@@H]1[C@H](O)[C@H](NC)[C@H]2O[C@@]3(O)C(=O)C[C@@H](C)O[C@H]3O[C@@H]2[C@H]1O.Cl.Cl.O.O.O.O.O and stop.
0.00807

----------
setup-conditions: in n-propanol, 318.15 K
quantity: solubility (mole fraction)

Please give the documented solubility (mole fraction) of CN[C@@H]1[C@H](O)[C@H](NC)[C@H]2O[C@@]3(O)C(=O)C[C@@H](C)O[C@H]3O[C@@H]2[C@H]1O.Cl.Cl.O.O.O.O.O
0.00531

----------
setup-conditions: in n-propanol, 293.15 K
quantity: solubility (mole fraction)
The answer should be written as a number, with no unit following it.

Give the measured solubility (mole fraction) for CN[C@@H]1[C@H](O)[C@H](NC)[C@H]2O[C@@]3(O)C(=O)C[C@@H](C)O[C@H]3O[C@@H]2[C@H]1O.Cl.Cl.O.O.O.O.O
0.00219

----------
setup-conditions: in n-propanol, 313.15 K
quantity: solubility (mole fraction)
Lab note: record the figure alone, no unit after it.

Note down solubility (mole fraction) recorded for CN[C@@H]1[C@H](O)[C@H](NC)[C@H]2O[C@@]3(O)C(=O)C[C@@H](C)O[C@H]3O[C@@H]2[C@H]1O.Cl.Cl.O.O.O.O.O
0.00447

----------
setup-conditions: in n-propanol, 308.15 K
quantity: solubility (mole fraction)

For CN[C@@H]1[C@H](O)[C@H](NC)[C@H]2O[C@@]3(O)C(=O)C[C@@H](C)O[C@H]3O[C@@H]2[C@H]1O.Cl.Cl.O.O.O.O.O , write its solubility (mole fraction).
0.00373

----------
setup-conditions: in methanol, 313.15 K
quantity: solubility (mole fraction)
Just the number, please, no unit after it.

Supply solubility (mole fraction) value. Item: CN[C@@H]1[C@H](O)[C@H](NC)[C@H]2O[C@@]3(O)C(=O)C[C@@H](C)O[C@H]3O[C@@H]2[C@H]1O.Cl.Cl.O.O.O.O.O
0.0531

----------
setup-conditions: in ethanol, 313.15 K
quantity: solubility (mole fraction)
A bare number is all that is needed in reply.

Return solubility (mole fraction) for the following compound: CN[C@@H]1[C@H](O)[C@H](NC)[C@H]2O[C@@]3(O)C(=O)C[C@@H](C)O[C@H]3O[C@@H]2[C@H]1O.Cl.Cl.O.O.O.O.O
0.00738

----------
setup-conditions: in n-propanol, 288.15 K
quantity: solubility (mole fraction)
Answer with a number only.

Provide solubility (mole fraction) value for the following compound: CN[C@@H]1[C@H](O)[C@H](NC)[C@H]2O[C@@]3(O)C(=O)C[C@@H](C)O[C@H]3O[C@@H]2[C@H]1O.Cl.Cl.O.O.O.O.O
0.00157

----------
setup-conditions: in isopropanol, 318.15 K
quantity: solubility (mole fraction)
Answer field: number only, no words.

Please look at this compound and report its solubility (mole fraction): CN[C@@H]1[C@H](O)[C@H](NC)[C@H]2O[C@@]3(O)C(=O)C[C@@H](C)O[C@H]3O[C@@H]2[C@H]1O.Cl.Cl.O.O.O.O.O
0.00131

----------
setup-conditions: in isopropanol, 303.15 K
quantity: solubility (mole fraction)
Please reply with the value in numeric form only.

# return recorded solubility (mole fraction) for entry CN[C@@H]1[C@H](O)[C@H](NC)[C@H]2O[C@@]3(O)C(=O)C[C@@H](C)O[C@H]3O[C@@H]2[C@H]1O.Cl.Cl.O.O.O.O.O
0.00086
